Each entry below carries its recorded Plant response rating, Pigweed.
Test system: pigweed (Amaranthus retroflexus)
Assay: Test A preemergence, pigweed
Format: in vivo
Settings: 1000 g ai/ha, 0 to 100 scale (0 no effect, 100 complete control)
Answer field: number only, no words.

Cc1cc(C)c(C(=O)N2CCC(C(C)(C)C)CC2)cc1NS(=O)(=O)C(F)(F)F
20
Cc1cc(C)c(C(=O)N2CCC(F)CC2)cc1NS(=O)(=O)C(F)(F)F
100

// next entry
[in] Returns the measured Plant response rating, Pigweed for the input compound. Input: Cc1cc(C)c(N(S(=O)(=O)C(F)(F)F)S(=O)(=O)C(F)(F)F)cc1C(=O)N1CCSCC1
[out] 100

====

System: wheat (Triticum aestivum)
Experiment: Test A1 preemergence, wheat
Format: in vivo
Settings: 31 g ai/ha, 0 to 100 scale (0 no effect, 100 complete control)
Outcome Measure: Plant response rating, Wheat
Answer field: number only, no words.

COCC1CC(c2cc(NS(=O)(=O)C(F)(F)F)c(C)cc2C)=NO1 (stereo not shown) [Compound 319]
80
Cc1cc(C)c(N(COC(=O)C(C)(C)C)S(=O)(=O)C(F)(F)F)cc1C1=NOC2CCCCCC12 (single isomer, unassigned) [Compound 294]
0
Cc1c(NS(=O)(=O)C(F)(F)F)cc(C2=NOC3(CCCC3)C2)c(C)c1C [Compound 380]
30

[in] Returns the measured Plant response rating, Wheat for the input molecule. Input: Cc1c(NS(=O)(=O)C(F)(F)F)cc(C(=O)N2CCC(F)CC2)c(C)c1C [Compound 358]
[out] 0

====

Test system: corn (Zea mays)
Test: Test A postemergence, corn
Format: in vivo
Details: Zea mays, post-emergence, 240 h; Postemergence, 500 g ai/ha; visual injury vs untreated controls after approx. 10 days; 0 to 100 scale (0 no effect, 100 complete control); read-out: Corn plant response rating
Each entry below carries its recorded plant injury at 500 g/ha.
Answer with the figure and its unit, nothing else.

Previously resolved entries follow.
Cc1c(NS(=O)(=O)C(F)(F)F)cc(C(=O)N2CCOCC2)c(C)c1F
30%
Cc1cc(C)c(N(COC(=O)C(C)(C)C)S(=O)(=O)C(F)(F)F)cc1C1=NO[C@@H]2CCC[C@H]12
30%
Cc1cc(C)c(C2=NOC3COCCC23)cc1NS(=O)(=O)C(F)(F)F (centres unmarked)
80%

[in] Returns the measured plant injury at 500 g/ha for the input molecule. Input: Cc1cc(Cl)c(NS(=O)(=O)C(F)(F)F)cc1C(=O)N1CCC(F)(F)CC1
[out] 70%

[in] Returns the measured plant injury at 500 g/ha for the input molecule. Input: Cc1cc(C)c(C2=NO[C@@H]3CCC[C@H]23)cc1NS(=O)(=O)C(F)(F)F
[out] 70%

====

Tested on: ragweed (common ragweed, Ambrosia artemisiifolia)
Experiment: Test A postemergence, ragweed
Assay type: in vivo
Conditions: Postemergence, 500 g ai/ha; visual injury, 0 to 100 scale (0 no effect, 100 complete control), approx. 10 days
Outcome Measure: Plant response rating, Ragweed
Answer field: number only, no words.

Cc1cc(C)c(N(S(C)(=O)=O)S(=O)(=O)C(F)(F)F)cc1-c1cc(C(C)C)nn(C)c1=O
70

// next entry
[in] Returns the measured Plant response rating, Ragweed for the input molecule. Input: Cc1cc(Cl)c(NS(=O)(=O)C(F)(F)F)cc1C(=O)N1CCC(C#N)CC1
[out] 90

====

Each entry below carries its recorded Plant response rating, Soybean.
System: soybean (Glycine max)
Assay: Test A1 preemergence, soybean
Format: in vivo
Settings: 31 g ai/ha, 0 to 100 scale (0 no effect, 100 complete control)
Answer field: number only, no words.

[in] Returns the measured Plant response rating, Soybean for the input compound. Input: Cc1cc(C)c(N(COC(=O)C(C)(C)C)S(=O)(=O)C(F)(F)F)cc1C(=O)N1CCC(c2ccccc2)CC1
[out] 0

[in] Returns the measured Plant response rating, Soybean for the input compound. Input: Cc1cc(C)c(N(C(=O)OC(C)C)S(=O)(=O)C(F)(F)F)cc1C1=NOC2CCCC12 (centres unmarked)
[out] 0

[in] Returns the measured Plant response rating, Soybean for the input compound. Input: Cc1c(C(=O)N2CCOCC2)cc(NS(=O)(=O)C(F)(F)F)c(Cl)c1F
[out] 60

====

Test system: ducksalad (Heteranthera limosa)
Assay: Test B1 flooded paddy test, ducksalad
Assay type: in vivo
Conditions: 250 g ai/ha, Flood, applied to paddy water, 2-leaf stage, visually evaluated after 10 to 14 days
// classify: if (Plant response rating, Ducksalad (0 to 100 scale, 0 is no effect, 100 is complete control) < 60) 1.0 else 0.0

Worked set:
Cc1cc(C)c(N(COC(=O)C(C)(C)C)S(=O)(=O)C(F)(F)F)cc1C(=O)N1CCC(F)(F)CC1 [Compound 350]
0.0
Cc1cc(C)c(C2=NOC3OCCCC23)cc1NS(=O)(=O)C(F)(F)F (stereo not drawn) [Compound 372]
0.0
CCC1ON=C(c2cc(N(COC(=O)C(C)(C)C)S(=O)(=O)C(F)(F)F)c(C)cc2C)C1CC (stereo not drawn) [Compound 344]
0.0
Cc1c(C2=NO[C@@H]3CCC[C@H]23)cc(N(COC(=O)C(C)(C)C)S(=O)(=O)C(F)(F)F)c(C)c1C [Compound 336]
0.0
Cc1cc(C)c(N2CC3(CCCCC3)CC2=O)cc1NS(=O)(=O)C(F)(F)F [Compound 392]
0.0
CCOC(=O)N(c1cc(C(=O)N2CCCCC2)c(C)c(C)c1C)S(=O)(=O)C(F)(F)F [Compound 330]
0.0

[in] Strictly below 60 in Plant response rating, Ducksalad (0 to 100 scale, 0 is no effect, 100 is complete control)? Cc1c(NS(=O)(=O)C(F)(F)F)cc(C(=O)N2CCOCC2)c(C)c1Cl [Compound 290]
[out] 0.0

[in] Strictly below 60 in Plant response rating, Ducksalad (0 to 100 scale, 0 is no effect, 100 is complete control)? Cc1cc(C)c(N(COC(=O)C(C)(C)C)S(=O)(=O)C(F)(F)F)cc1C1=NOC2COCC12 (stereo not drawn) [Compound 301]
[out] 1.0

[in] Strictly below 60 in Plant response rating, Ducksalad (0 to 100 scale, 0 is no effect, 100 is complete control)? Cc1c(C(=O)N2CCC(C)CC2)cc(N(COC(=O)C(C)(C)C)S(=O)(=O)C(F)(F)F)c(C)c1C [Compound 369]
[out] 0.0

[in] Strictly below 60 in Plant response rating, Ducksalad (0 to 100 scale, 0 is no effect, 100 is complete control)? Cc1cc(C)c(N(COC(=O)C(C)(C)C)S(=O)(=O)C(F)(F)F)cc1C(=O)N1CCC(c2ccccc2)CC1 [Compound 364]
[out] 1.0

[in] Strictly below 60 in Plant response rating, Ducksalad (0 to 100 scale, 0 is no effect, 100 is complete control)? CCOC1CC(c2cc(N(COC(=O)C(C)(C)C)S(=O)(=O)C(F)(F)F)c(C)cc2C)=NO1 (stereo not drawn) [Compound 339]
[out] 0.0

[in] Strictly below 60 in Plant response rating, Ducksalad (0 to 100 scale, 0 is no effect, 100 is complete control)? Cc1cc(C)c(N(COC(=O)C(C)(C)C)S(=O)(=O)C(F)(F)F)cc1N1CCC2(CCC(C(F)(F)F)CC2)C1=O (stereo not drawn) [Compound 403]
[out] 1.0

[in] Strictly below 60 in Plant response rating, Ducksalad (0 to 100 scale, 0 is no effect, 100 is complete control)? CCOC(=O)N(c1cc(C(=O)N2CCC(c3ccccc3)CC2)c(C)cc1C)S(=O)(=O)C(F)(F)F [Compound 365]
[out] 1.0

====

Test system: rice (Oryza sativa)
Assay: Test B flooded paddy test, rice
Details: 336 h, read-out: Plant response rating, Rice
Outcome Measure: plant injury at 250 g/ha (%)
Answer format: numeric, % implied, no suffix.

Previously resolved entries follow.
Cc1cc(C)c(N(COC(=O)C(C)(C)C)S(=O)(=O)C(F)(F)F)cc1N1CCC2(CCCCC2)C1=O
0
Cc1cc(C)c(N(COC(=O)C(C)(C)C)S(=O)(=O)C(F)(F)F)cc1C1=NOC2(CCCC2)C1
0

// next entry
[in] Returns the measured plant injury at 250 g/ha for the input compound. Input: Cc1cc(Cl)c(NS(=O)(=O)C(F)(F)F)cc1C(=O)N1CCOCC1
[out] 0

====

Test system: wheat (Triticum aestivum)
Assay: Test A1 preemergence, wheat
Format: in vivo
Conditions: 31 g ai/ha, 0 to 100 scale (0 no effect, 100 complete control)
Each entry below carries its recorded Plant response rating, Wheat.
Answer field: number only, no words.

Previously resolved entries follow.
Cc1cc(C)c(N(COC(=O)C(C)(C)C)S(=O)(=O)C(F)(F)F)cc1C1=NOC2OCCC12 (stereo not drawn) [Compound 352]
10
COc1cc(C)c(NS(=O)(=O)C(F)(F)F)cc1C1=NOC2CCCC12 (stereo not drawn) [Compound 312]
0
Cc1cc(C2CC2)c(C2=NOC3CCCC23)cc1NS(=O)(=O)C(F)(F)F (stereo not drawn) [Compound 307]
10
CCC1ON=C(c2cc(N(COC(=O)C(C)(C)C)S(=O)(=O)C(F)(F)F)c(C)cc2C)C1CC (stereo not drawn) [Compound 347]
0
Cc1ccc(C2=NOC3CCCC23)cc1NS(=O)(=O)C(F)(F)F (stereo not drawn) [Compound 377]
0

[in] Returns the measured Plant response rating, Wheat for the input compound. Input: CCOC(=O)N(c1cc(C(=O)N2CCOCC2)c(C)cc1C)S(=O)(=O)C(F)(F)F [Compound 363]
[out] 40

[in] Returns the measured Plant response rating, Wheat for the input compound. Input: CCOC1CC(c2cc(N(COC(=O)C(C)(C)C)S(=O)(=O)C(F)(F)F)c(C)cc2C)=NO1 (stereo not drawn) [Compound 339]
[out] 0

[in] Returns the measured Plant response rating, Wheat for the input compound. Input: Cc1c(NS(=O)(=O)C(F)(F)F)cc(C(=O)N2CCCCC2)c(C)c1C [Compound 326]
[out] 0

[in] Returns the measured Plant response rating, Wheat for the input compound. Input: Cc1cc(C)c(N2CCC3(CCC(C(F)(F)F)CC3)C2=O)cc1NS(=O)(=O)C(F)(F)F (stereo not drawn) [Compound 400]
[out] 10

[in] Returns the measured Plant response rating, Wheat for the input compound. Input: Cc1cc(C)c(N(COC(=O)C(C)(C)C)S(=O)(=O)C(F)(F)F)cc1N1CCC2(CCC(C(F)(F)F)CC2)C1=O (stereo not drawn) [Compound 403]
[out] 0
